inhibition in vivo at 50 mg/kg for assorted compounds
tested on: Plasmodium berghei; test: animal or person; settings: in Mus musculus, po, read-out: INH
Record the value in %, omitting the unit from your answer.

COC(=O)c1c[nH]c2cc(CN3CCN(Cc4ccccc4)CC3)c(OC)cc2c1=O ... 19.3
COC(=O)c1c[nH]c2cc(CN3CCN(c4ccc(OC)cc4)CC3)ccc2c1=O ... 39.2
COC(=O)c1c[nH]c2cc(CN3CCN(c4ccc(F)cc4)CC3)c(OC)cc2c1=O ... 56.9
COC(=O)c1c[nH]c2cc(CN3CCN(Cc4ccccc4)CC3)c(C)cc2c1=O ... 24.6
COC(=O)c1c[nH]c2cc(N3CCN(c4ccccc4)CC3)c(C)cc2c1=O ... 31.6
COC(=O)c1c[nH]c2cc(CN3CCN(c4ccc(OC)cc4)CC3)c(OC)cc2c1=O ... 70.6
COC(=O)c1c[nH]c2cc(CN3CCN(Cc4ccc(OC)cc4)CC3)c(OC)cc2c1=O ... 24.6
O=c1c(Cl)c[nH]c2cc(CN3CCN(c4ccc(F)cc4)CC3)ccc12 ... 71.9
COC(=O)c1c[nH]c2cc(CN3CCN(Cc4ccccc4)CC3)ccc2c1=O ... 12.3

Let us examine a further case.
Please look up its inhibition in vivo at 50 mg/kg: COC(=O)c1c[nH]c2cc(CN3CCN(c4ccccc4)CC3)c(OC)cc2c1=O
82.4

----------
test system: Plasmodium berghei; test: Antimalarial activity against Plasmodium berghei infected in human HepG2 cells after 44 hrs by luciferase assay; type: functional, cell-based; settings: HepG2, 44 h
outcome measure: EC50

Reference set (6 entries):
COC(=O)c1c[nH]c2cc(N3CCN(Cc4ccccc4)CC3)ccc2c1=O ... 85 nM
O=c1c(Br)c[nH]c2cc(CN3CCN(c4ccc(F)cc4)CC3)ccc12 ... 0.86 nM
COC(=O)c1c[nH]c2cc(CN3CCN(c4ccc(OC)cc4)CC3)c(OC)cc2c1=O ... 10 nM
COC(=O)c1c[nH]c2cc(CN3CCN(c4ccccc4)CC3)c(OC)cc2c1=O ... 110 nM
COC(=O)c1c[nH]c2cc(CN3CCN(Cc4ccccc4)CC3)c(OC)cc2c1=O ... 9.3 nM
COC(=O)c1c[nH]c2cc(CN3CCN(c4ccccc4)CC3)ccc2c1=O ... 4.7 nM

Now look at this entry.
Look up EC50: COC(=O)c1c[nH]c2ccc(CN3CCN(c4ccc(OC)cc4)CC3)cc2c1=O
> 100 nM

----------
test: Aqueous solubility of compound at pH 6.5; type: physicochemical
// reported solubility per item

COC(=O)c1c[nH]c2cc(CCN3CCN(Cc4ccc(OC)cc4)CC3)ccc2c1=O ... ≥ 80 µM
COC(=O)c1c[nH]c2cc(CN3CCN(c4ccccc4)CC3)ccc2c1=O ... ≥ 80 µM
COC(=O)c1c[nH]c2cc(N3CCN(c4ccccc4)CC3)ccc2c1=O ... < 20 µM
COC(=O)c1c[nH]c2cc(CCN3CCN(c4ccccc4)CC3)ccc2c1=O ... ≥ 80 µM
COC(=O)c1c[nH]c2cc(CN3CCN(Cc4ccccc4)CC3)ccc2c1=O ... ≥ 80 µM

State the recorded solubility for this entry: COC(=O)c1c[nH]c2cc(CCN3CCN(Cc4ccccc4)CC3)ccc2c1=O
≥ 80 µM
